- MEASUREMENT TARGET: T1, Human IL-18BP (isoform A) (human, UniProt O95998 31-194, biotinylated (site not stated))
- T1 construct: also called decoy receptor
- T1 sequence: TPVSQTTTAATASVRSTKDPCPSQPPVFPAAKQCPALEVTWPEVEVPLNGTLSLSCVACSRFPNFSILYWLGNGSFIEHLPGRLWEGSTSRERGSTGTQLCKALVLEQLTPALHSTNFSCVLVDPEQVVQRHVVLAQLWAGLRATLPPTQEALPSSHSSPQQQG
- ASSAY COMMENT: SPR, Biacore 8K, 37 C, biotinylated target on SA chip, single-cycle kinetics
EXPERIMENTAL READOUT: pKd
The scale used: pKd is minus the common logarithm of the concentration in molar units.

Examples from the recorded data:
BINDER | pKd
Human IL-18 L45C/E192C (ligand, Made in mammalian cells) YFGKLESKCSVIRNLNDQVLFIDQGNRPLFEDMTDSDSRDNAPRTIFIISMYKDSQPRGMAVTISVKSEKISTLSSENKIISFKEMNPPDNIKDTKSDIIFFQRSVPGHDNKMQFESSSYEGYFLASEKERDLFKLILKKEDELGDRSIMFTVQNCD | 10.82
Human IL-18 Y37C/S91C (ligand, Made in mammalian cells) CFGKLESKLSVIRNLNDQVLFIDQGNRPLFEDMTDSDSRDNAPRTIFIISMYKDCQPRGMAVTISVKSEKISTLSSENKIISFKEMNPPDNIKDTKSDIIFFQRSVPGHDNKMQFESSSYEGYFLASEKERDLFKLILKKEDELGDRSIMFTVQNED | 10.15
Human IL-18 S46C/I85C (ligand, Made in mammalian cells) YFGKLESKLCVIRNLNDQVLFIDQGNRPLFEDMTDSDSRDNAPRTIFICSMYKDSQPRGMAVTISVKSEKISTLSSENKIISFKEMNPPDNIKDTKSDIIFFQRSVPGHDNKMQFESSSYEGYFLASEKERDLFKLILKKEDELGDRSIMFTVQNED | 10.46
Human IL-18 N50C (ligand, Made in mammalian cells) YFGKLESKLSVIRCLNDQVLFIDQGNRPLFEDMTDSDSRDNAPRTIFIISMYKDSQPRGMAVTISVKSEKISTLSSENKIISFKEMNPPDNIKDTKSDIIFFQRSVPGHDNKMQFESSSYEGYFLACEKERDLFKLILKKEDELGDRSIMFTVQNED | 11.21
Human IL-18 I107C/N123C (ligand, Made in mammalian cells) YFGKLESKLSVIRNLNDQVLFIDQGNRPLFEDMTDSDSRDNAPRTIFIISMYKDSQPRGMAVTISVKSEKCSTLSSENKIISFKEMCPPDNIKDTKSDIIFFQRSVPGHDNKMQFESSSYEGYFLASEKERDLFKLILKKEDELGDRSIMFTVQNED | 11.15
Human IL-18 L174C (ligand, Made in mammalian cells) YFGKLESKLSVIRNLNDQVLFIDQGNRPLFEDMTDSDSRDNAPRTIFIISMYKDSQPRGMAVTISVKSEKISTLSCENKIISFKEMNPPDNIKDTKSDIIFFQRSVPGHDNKMQFESSSYEGYFLASEKERDLFKLICKKEDELGDRSIMFTVQNED | 11.15

-- ask Requested read-out: pKd. Entry: Human IL-18 T99C/P124C (ligand, Made in mammalian cells) YFGKLESKLSVIRNLNDQVLFIDQGNRPLFEDMTDSDSRDNAPRTIFIISMYKDSQPRGMAVCISVKSEKISTLSSENKIISFKEMNCPDNIKDTKSDIIFFQRSVPGHDNKMQFESSSYEGYFLASEKERDLFKLILKKEDELGDRSIMFTVQNED
-- reply 11.10
